Record form. Attribute: TGI. Fill in for each entry.
- System: HL-60(TB) leukemia
- testDetails: NCI tumour cell line growth inhibition, 48 h
Answers are plain numbers, in µM.

Value sought for every listed molecule: TGI.
1. CC(C)(C)OC(=O)NCCC(=O)NC1(c2cc3ccccc3s2)CCCCC1
2. O=c1c2c(c3ccccc3n1-c1ccccc1)NC(=S)NC2c1ccc(Cl)cc1 (centres undefined)

1. 35.1
2. 45

Give TGI for all molecules that follow.
1. CCCCCCCCCCC/C=C\C[C@H](O)C/C=C1/C(=O)C=C[C@@H]1C/C=C\CCCC(=O)OC
2. Cc1ccc(/C=C/C(=N/N=C(N)N)c2ccccc2)cc1

2.68
4.75

Kindly give each listed record's TGI.
1. CO[C@]12C=C/C(=C(/C(=O)OCc3cccnc3)C(=O)CCCCCCCC[C@@]3(OC)C=C/C(=C(/C(=O)OCc4cccnc4)C(=O)CCCCCCCC1)O3)O2
2. COc1ccc2c(Cc3c4ccccc4cc4ccccc34)cncc2c1O
3. c1cc(CSSCc2ccncc2)ccn1
4. COC1=CC(=O)c2c(cc(COP(=O)(OCC3OC(n4cc(F)c(=O)[nH]c4=O)CC3O)N(C)CCCCCl)n2C)C1=O (centres undefined)

1. 4.25
2. 8.36
3. 42.4
4. 16

* * *

- System: SK-MEL-5 melanoma
- testDetails: NCI tumour cell line growth inhibition, 48 h; in the data active = GI50 below about 0.43 µM; inactive = the rest
Select the matching outcome among true for active, false for inactive

Examples with answers:
- structureString: "C/C(=N\\NC(=S)N1CCN(C2CCCCCC2)CC1)c1ccccn1"
  answerLabel: "true"
- structureString: "COC(=O)c1ccc2c(c1)C(=O)c1c-2n(C)c(=O)c2cc(OC)c(OC)cc12"
  answerLabel: "false"
- structureString: "O=C(N=Nc1c(O)[nH]c2ccccc12)c1oc2ccccc2c1CN1CCN(c2ccccc2)CC1"
  answerLabel: "false"
- structureString: "Fc1ccc(-c2nn3c(-c4cc(C(F)(F)F)cc(C(F)(F)F)c4)nnc3s2)cc1"
  answerLabel: "false"

Next up:
Test call, this compound: CCN(Cc1ccccc1Cl)c1ccc(CO)c(Cl)c1
false

* * *

- System: RPMI-8226 leukemia
- testDetails: NCI tumour cell line growth inhibition, 48 h; in the data active = GI50 below about 0.43 µM; inactive = the rest
Your answer must be one of the following: active, inactive

- compound: "O=[N+]([O-])c1ccc(Sc2nc(Cl)nc(NC3CCCC3)n2)cc1"
  answerLabel: "inactive"
- compound: "c1ccc(Nc2nc(-c3ccccn3)cs2)nc1"
  answerLabel: "inactive"
- compound: "Clc1cc2c(nn1)Nc1ccccc1S2"
  answerLabel: "inactive"
- compound: "CC(C)(CCN=C(N)Nc1ccccn1)c1ccc(C(F)(F)F)cc1"
  answerLabel: "inactive"
- compound: "COc1ccc(-c2nc(Nc3ccc(-c4nc5ccccc5[nH]4)cc3)nc(N3CCOCC3)n2)cc1"
  answerLabel: "inactive"
- compound: "CC1SC2(CCC(c3ccccc3)CC2)N(NC(=O)c2[nH]c3ccc(F)cc3c2-c2ccccc2)C1=O (stereo unspecified)"
  answerLabel: "inactive"
- compound: "C1COCCOCCOCCOCCOCCO1.[Cl][Sn]([Cl])([c]1ccccc1)[c]1ccccc1"
  answerLabel: "inactive"
- compound: "O=C1C(Nc2ccc(Br)cc2)=C(I)C(=O)c2ncccc21"
  answerLabel: "inactive"

GET /call?item= Cc1cccc2nc3cccc(C(=O)NCCNCCNCCNC(=O)c4cccc5nc6cccc(C)c6nc45)c3nc12 returns the recorded outcome of this test.
active

Please let me know the test result on file for CN(C)CCC=C1c2ccccc2C(C)(C)c2ccccc21 .
inactive

Please indicate how the test categorized CCCCCCCCCCCCCCCC(=O)N[C@H](/C=C/[C@H](O)CCCCCCCCCCCCC)CO .
inactive

Can you look up the reported call for CC(=O)c1ccc(Nc2nc(Nc3ccc(F)cc3)nc(Nc3ccc(F)cc3)n2)cc1 for me?
inactive

Returns: the outcome recorded for CCOC(=O)c1ccc2c(c1)nc(/C=C/c1ccc(Cl)cc1)n2-c1cc(C(C)(C)C)[nH]n1 in this assay.
inactive

Kindly provide the recorded test outcome for the following compound: CCCCCCC/C=C/[C@H]1O[C@]2(O)C(=O)C=C3C[C@@H](O[C@@H]4O[C@H](CO)[C@@H](O)C(O)[C@@H]4O)C[C@@H]3[C@H]2C=C1C (stereo partly specified)
inactive

Would you mind telling me which call this test gave N#Cc1ccsc1NC(=O)COC(=O)c1cccc(S(=O)(=O)N2CCc3ccccc32)c1 ?
inactive

Could you check what this test reported for CC[C@@H](C(=O)[C@H](C)[C@H](O)[C@@H](C)[C@H]1O[C@H]([C@@H](CC)C(=O)O)CC[C@H]1C)C1O[C@]2(C=C[C@@H](O)[C@]3(CC[C@@](C)([C@H]4CC[C@](O)(CC)[C@H](C)O4)O3)O2)[C@H](C)C[C@@H]1C (stereo partly specified) ?
active

* * *

- System: A498 renal
- testDetails: NCI tumour cell line growth inhibition, 48 h
testReadout: TGI

See these solved cases before continuing.
- compound: "CC(C)(C)OC(=O)NCCC(=O)NC1(c2cc3ccccc3s2)CCCCC1"
  studyTarget: "A498 renal"
  TGI: "45.4 µM"
- compound: "O=c1c2ccccc2nc2n1C(c1ccc([N+](=O)[O-])cc1)C2(c1ccccc1)c1ccccc1 (centres undefined)"
  studyTarget: "A498 renal"
  TGI: "> 100 µM"
- compound: "O=c1cc(N2CCCC2)[nH]c(=O)n1-c1ccc(F)cc1"
  studyTarget: "A498 renal"
  TGI: "> 100 µM"
- compound: "COC1=C(Br)C(O)C2(C=C1Br)CC(C(=O)NCCCCNC(=O)C1=NOC3(C=C(Br)C(OC)=C(Br)C3O)C1)=NO2 (centres undefined)"
  studyTarget: "A498 renal"
  TGI: "> 100 µM"
- compound: "O=c1c(C2=NCCC2)c(-c2ccc[nH]2)[nH]n1-c1ccccc1"
  studyTarget: "A498 renal"
  TGI: "> 100 µM"
- compound: "COc1cc(OC)c2c(=O)c(OC)c(-c3ccc4c(c3)OCO4)oc2c1OC"
  studyTarget: "A498 renal"
  TGI: "> 100 µM"
- compound: "COC(=O)/C=C(/C(=O)OC)c1cc2ccc3c([nH]c4ccccc43)c(C)c-2c1"
  studyTarget: "A498 renal"
  TGI: "23.5 µM"
- compound: "O=C(NNC(=S)Nc1ccc(Br)cc1)c1cc(-c2ccccc2)nc2ccccc12"
  studyTarget: "A498 renal"
  TGI: "28.6 µM"

Field: TGI. Fill in for each record below.
1. N#CCCN(CCC#N)c1ccc(C(N=Nc2ccccc2)=Nc2ccc(Cl)cc2)cc1
2. CO/C(=C/C(=O)C(Cl)(Cl)Cl)CC/C(=C\C(=O)C(Cl)(Cl)Cl)OC
3. COc1ccc2c(c1)[n+]([O-])c(-c1ccc(Br)cc1)c(N)[n+]2[O-]
4. CC1=NN2C(c3ccc(C)cc3)=CSC2=NC(C)(C)C1
5. c1cc(CSSCc2ccncc2)ccn1
6. OC(c1cc2ccccc2[nH]1)C1(c2cccnc2)SCCCS1 (centres undefined)

> 100 µM
> 100 µM
> 100 µM
> 100 µM
> 100 µM
> 100 µM

* * *

Kindly state TGI for each of the entries shown.
- Tested on: CAKI-1 renal
- testDetails: NCI tumour cell line growth inhibition, 48 h

- compound: "CC(=O)Oc1c2c(c(CC=C(C)C)c3c1C(=O)C1=C[C@@H]4CC5C(C)(C)OC(C/C=C(/C)C(=O)O)(C4=O)[C@@]15O3)OC(C)(CCC=C(C)C)C=C2 (some centres undefined)"
  studyTarget: "CAKI-1 renal"
  TGI: "0.409 µM"
- compound: "CCOC(=O)c1ccc2c(c1)nc(/C=C/c1ccc(Cl)cc1)n2-c1cc(C(C)(C)C)[nH]n1"
  studyTarget: "CAKI-1 renal"
  TGI: "61.2 µM"
- compound: "O=c1c2ccccc2nc2n1C(c1ccc([N+](=O)[O-])cc1)C2(c1ccccc1)c1ccccc1 (centres undefined)"
  studyTarget: "CAKI-1 renal"
  TGI: "> 100 µM"
- compound: "N#CC(Nc1cccc(C(F)(F)F)c1)c1ccccc1C(F)(F)F (centres undefined)"
  studyTarget: "CAKI-1 renal"
  TGI: "9.09 µM"
- compound: "COC(=O)C(CC(C)=O)CS(=O)(=O)CC(=O)C(=O)Nc1cccc([N+](=O)[O-])c1 (centres undefined)"
  studyTarget: "CAKI-1 renal"
  TGI: "> 100 µM"

Give measured TGI for every item shown.
1. COc1cccc(CCNc2c(C#N)c3nc4ccccc4n3c3ccccc23)c1
2. CN1C(=O)C(C(N)=O)C2CC1(C)Oc1ccccc12 (centres undefined)
3. CC1(c2cccc(N)c2)C2C(=O)NC(=O)C1C(=O)NC2=O (centres undefined)
4. N#Cc1ccsc1NC(=O)COC(=O)c1cccc(S(=O)(=O)N2CCc3ccccc32)c1

1: > 100 µM; 2: > 100 µM; 3: > 100 µM; 4: > 100 µM
